MIC Streptococcus pyogenes (GC 4563) values, listed per item
Test system: Streptococcus sp.
ASSAY METHOD TEXT: in vitro antibacterial evaluation, MIC by broth dilution
Format: cell-based
STATED CONDITIONS: broth dilution, 18 hours at 35° C.

MOLECULE: CC(c1ccccc1)C1NC(=O)CNC(=O)C(CO)NC(=O)C(C(O)C2CNC(=N)N2C2OC(CO)C(O)C(O)C2O)NC(=O)C(C(O)C2CNC(=N)N2)NC(=O)C(Cc2ccc(OC3OC(CO)C(OC4OC(COCc5ccc(OCc6ccccc6)cc5)C(O)C(O)C4O)C(O)C3O)cc2)NC1=O (stereo not shown) [Example 231]
EXPERIMENTAL SYSTEM: Streptococcus sp.
MIC Streptococcus pyogenes (GC 4563): <0.06 µg/mL
--
MOLECULE: CCCC(C)C1OCC2OC(OC3C(CO)OC(Oc4ccc(CC5NC(=O)C(C(C)c6ccc(Cl)cc6)NC(=O)CNC(=O)C(CO)NC(=O)C(C(O)C6CNC(=N)N6C6OC(CO)C(O)C(O)C6O)NC(=O)C(C(O)C6CNC(=N)N6)NC5=O)cc4)C(O)C3O)C(O)C(O)C2O1 (stereo not shown) [Example 194]
EXPERIMENTAL SYSTEM: Streptococcus sp.
MIC Streptococcus pyogenes (GC 4563): <0.06 µg/mL
--
MOLECULE: CC(C1CCCCC1)C1NC(=O)CNC(=O)C(CO)NC(=O)C(C(O)C2CNC(=N)N2C2OC(CO)C(O)C(O)C2O)NC(=O)C(C(O)C2CNC(=N)N2)NC(=O)C(C[C@H]2CC[C@H](O)CC2)NC1=O (stereo partly shown) [Example 54a]
EXPERIMENTAL SYSTEM: Streptococcus sp.
MIC Streptococcus pyogenes (GC 4563): >128 µg/mL
--
MOLECULE: CC(c1ccccc1)C1NC(=O)CNC(=O)C(CO)NC(=O)C(C(O)C2CN(Cc3ccccc3)C(=N)N2C2OC(CO)C(O)C(O)C2O)NC(=O)C(C(O)C2CNC(=N)N2)NC(=O)C(Cc2ccc(OC3OC(CO)C(OC4OC(CO)C(O)C(O)C4O)C(O)C3O)cc2)NC1=O (stereo not shown) [Example 59]
EXPERIMENTAL SYSTEM: Streptococcus sp.
MIC Streptococcus pyogenes (GC 4563): >128 µg/mL
--
MOLECULE: CC(c1ccccc1)C1NC(=O)CNC(=O)C(CO)NC(=O)C(C(O)C2CN(Cc3ccc(C(C)(C)C)cc3)C(=N)N2C2OC(CO)C(O)C(O)C2O)NC(=O)C(C(O)C2CNC(=N)N2)NC(=O)C(Cc2ccc(OC3OC(CO)C(OC4OC(CO)C(O)C(O)C4O)C(O)C3O)cc2)NC1=O (stereo not shown) [Example 60]
EXPERIMENTAL SYSTEM: Streptococcus sp.
MIC Streptococcus pyogenes (GC 4563): >128 µg/mL
--
MOLECULE: CC(c1ccccc1)C1NC(=O)CNC(=O)C(CO)NC(=O)C(C(O)C2CNC(=NCc3ccccc3)N2C2OC(CO)C(O)C(O)C2O)NC(=O)C(C(O)C2CNC(=N)N2)NC(=O)C(Cc2ccc(OC3OC(CO)C(OC4OC5COC6(OC5C(O)C4O)C4CC5CC(C4)CC6C5)C(O)C3O)cc2)NC1=O (stereo not shown) [Example 76]
EXPERIMENTAL SYSTEM: Streptococcus sp.
MIC Streptococcus pyogenes (GC 4563): 0.25 to 2 µg/mL
--
MOLECULE: CC(c1ccccc1)C1NC(=O)CNC(=O)C(CO)NC(=O)C(C(O)C2CN(Cc3ccc(C(=O)O)cc3)C(=N)N2C2OC(CO)C(O)C(O)C2O)NC(=O)C(C(O)C2CNC(=N)N2)NC(=O)C(Cc2ccc(OC3OC(CO)C(OC4OC(CO)C(O)C(O)C4O)C(O)C3O)cc2)NC1=O (stereo not shown) [Example 69]
EXPERIMENTAL SYSTEM: Streptococcus sp.
MIC Streptococcus pyogenes (GC 4563): >128 µg/mL

Cited source: patent US6914045B2
